Exercise: state measured ka for each of the molecules provided.
# Subject of test: T1, human EphA4 (Homo sapiens, UniProt P54764)
# T1 construct: made in house; not restated for the human SEAP-His protein
# Protocol summary: Affinity of humanized antibodies by SPR (Biacore T200)
# Format: binding
# Assay context: human EphA4 extracellular region-SEAP-His; 1:1 binding model
Give bare numbers, in M⁻¹ s⁻¹.

Record excerpt, results attached:
154 (antibody, V domains shown, synthetic humanized antibody heavy chain variable region sequence; synthetic humanized antibody light chain variable region sequence) VH: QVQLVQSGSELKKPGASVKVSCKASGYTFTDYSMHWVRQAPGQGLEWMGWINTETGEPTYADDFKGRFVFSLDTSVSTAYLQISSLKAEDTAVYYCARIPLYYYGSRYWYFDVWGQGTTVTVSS VL: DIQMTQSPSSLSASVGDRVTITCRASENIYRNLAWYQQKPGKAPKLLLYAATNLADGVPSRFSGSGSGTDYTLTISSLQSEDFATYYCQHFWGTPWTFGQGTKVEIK = 390000
81 (antibody, V domains shown, constant regions without entry; synthetic humanized antibody light chain variable region sequence; synthetic humanized antibody heavy chain variable region sequence) VL: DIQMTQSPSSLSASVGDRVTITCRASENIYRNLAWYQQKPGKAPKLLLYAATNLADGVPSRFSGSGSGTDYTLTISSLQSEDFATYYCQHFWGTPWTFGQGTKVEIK VH: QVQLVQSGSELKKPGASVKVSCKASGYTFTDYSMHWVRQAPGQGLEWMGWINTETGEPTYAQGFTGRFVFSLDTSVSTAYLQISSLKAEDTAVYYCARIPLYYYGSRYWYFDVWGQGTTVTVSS = 340000
96 (antibody, V domains shown, constant regions without entry; synthetic humanized antibody light chain variable region sequence; synthetic humanized antibody heavy chain variable region sequence) VL: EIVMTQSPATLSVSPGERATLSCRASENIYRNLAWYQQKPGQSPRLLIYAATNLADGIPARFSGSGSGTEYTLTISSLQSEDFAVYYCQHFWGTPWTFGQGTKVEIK VH: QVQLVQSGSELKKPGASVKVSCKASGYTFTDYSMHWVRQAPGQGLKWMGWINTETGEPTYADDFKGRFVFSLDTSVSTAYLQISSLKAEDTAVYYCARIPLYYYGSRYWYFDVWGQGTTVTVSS = 270000

Moving on to another molecule below.
Q: Returns the measured ka for the input molecule. Input: 133 (antibody, V domains shown, synthetic humanized antibody heavy chain variable region sequence; synthetic humanized antibody light chain variable region sequence) VH: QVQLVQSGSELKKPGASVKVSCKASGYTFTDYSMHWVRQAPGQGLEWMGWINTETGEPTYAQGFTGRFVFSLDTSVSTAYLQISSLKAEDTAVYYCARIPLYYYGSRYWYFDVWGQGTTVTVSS VL: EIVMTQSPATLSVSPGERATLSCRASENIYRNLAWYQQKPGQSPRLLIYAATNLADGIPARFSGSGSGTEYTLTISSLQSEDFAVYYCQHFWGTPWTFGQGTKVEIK
Result: 300000
